Values were extracted from patent US10336732B2.

- System: mice
- Experiment notes: Neuropharmacological assay (SmartCube), behavioral signature of compound-treated mice
- Assay type: in vivo
- Condition description: i.p. 15 min before behavioral test, most efficacious dose(s) of 3 doses
Value kind: CE: cognitive enhancer (probability that behavioral signature matches class)

Compound | Result
c1ccc2c(c1)CCO[C@@H]2[C@@H]1CCN1 [Compound I-79, (S)-2-((S)-isochroman-1-yl)azetidine] | ++ (5% ≤ ++ <25%)
Cc1cccc2c1[C@@H]([C@@H]1CCCN1)OCC2 | + (LOQ ≤ + <5%)
Fc1ccc2c(c1)[C@H]([C@H]1CCCN1)OCC2 | ++ (5% ≤ ++ <25%)
N#Cc1ccc2c(c1)[C@@H]([C@@H]1CCCN1)OCC2 | ++ (5% ≤ ++ <25%)
Fc1ccc2c(c1)CCO[C@@H]2[C@@H]1COCCN1 | + (LOQ ≤ + <5%)
Fc1ccc2c(c1)[C@H]([C@@H]1CCN1)OCC2 | ++ (5% ≤ ++ <25%)
N#Cc1ccc2c(c1)CCO[C@H]2[C@H]1CCCN1 | + (LOQ ≤ + <5%)
c1ccc2c(c1)CCO[C@@H]2[C@@H]1COCCN1 [Compound I-75, (S)-3-((S)-isochroman-1-yl)morpholine] | ++ (5% ≤ ++ <25%)
c1ccc2c(c1)CCO[C@@H]2[C@H]1CCCN1 [Compound I-20, (R)-2-((S)-isochroman-1-yl)pyrrolidine] | ++ (5% ≤ ++ <25%)
c1ccc2c(c1)CCO[C@@H]2[C@@H]1CCCN1 [Compound I-17, (S)-2-((S)-isochroman-1-yl)pyrrolidine] | ++ (5% ≤ ++ <25%)
N#Cc1ccc2c(c1)[C@H]([C@@H]1CCCN1)OCC2 | ++ (5% ≤ ++ <25%)
Fc1ccc2c(c1)CCO[C@@H]2[C@@H]1CCN1 | ++ (5% ≤ ++ <25%)
Cc1ccc2c(c1)[C@@H](C1CNC1)OCC2 [Compound I-116, (R)-3-(7-methylisochroman-1-yl)azetidine] | + (LOQ ≤ + <5%)
CC1(C)Cc2ccccc2[C@H]([C@@H]2CCCN2)O1 | ++ (5% ≤ ++ <25%)
CC1(C)Cc2ccccc2[C@@H]([C@@H]2CCCN2)O1 | ++ (5% ≤ ++ <25%)
N#Cc1cccc2c1[C@H]([C@@H]1CCCN1)OCC2 | + (LOQ ≤ + <5%)
Fc1ccc2c(c1)[C@H](F)CO[C@H]2[C@@H]1CCN1 | ++ (5% ≤ ++ <25%)
Cc1ccc2c(c1)[C@@H]([C@H]1CCCN1)OCC2 | ++ (5% ≤ ++ <25%)
